Entries and their pKd values follow.
- targetDesc: T1, Rb^P I703F (human, UniProt P06400 380-788, I703F)
- T1 construct: also called variant 64
- T1 sequence (looked up): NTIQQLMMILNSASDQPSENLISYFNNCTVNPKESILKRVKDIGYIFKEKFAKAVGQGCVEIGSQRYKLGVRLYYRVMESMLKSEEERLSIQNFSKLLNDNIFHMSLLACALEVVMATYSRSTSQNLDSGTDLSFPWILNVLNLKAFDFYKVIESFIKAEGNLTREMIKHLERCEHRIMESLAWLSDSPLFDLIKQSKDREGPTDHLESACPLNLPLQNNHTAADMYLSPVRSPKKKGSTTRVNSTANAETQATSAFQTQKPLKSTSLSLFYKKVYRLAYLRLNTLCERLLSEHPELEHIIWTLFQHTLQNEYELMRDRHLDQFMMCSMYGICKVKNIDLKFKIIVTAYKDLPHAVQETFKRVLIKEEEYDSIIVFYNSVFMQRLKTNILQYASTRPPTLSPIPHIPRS
- testSummary: fluorescence polarisation; 25 °C; unlabeled Rb^P titrated against 1.5 nM TMR-E2F1^TD or 7.5 nM TMR-E7^LxCxE; 25 mM Tris pH 8.0, 200 mM NaCl, 1 mM DTT, 0.1% Tween-20; 2 min incubation; quadratic fit; apparent Kd for the variants, Kd for WT
- conditionsUsed: both partners purified
pKd: −log10 of the molar value. No end group written: not given here. TMR = tetramethyl rhodamine dye

binder: DLYCYEQLN (also: TMR label, position not given here, source: synthetic peptide, bought: GenScript) [TMR-E7^LxCxE, LxCxE peptide of the E7 oncoprotein from HPV]
pKd: 7.80

binder: {TMR}-GEGIRDLFDCDFGDLTPLD (also called E2F^TD; source: synthetic peptide, bought: GenScript) [TMR-E2F1^TD, peptide of the E2F1 transactivation domain]
pKd: 7.20
